- Recorded Conditions: human gut metagenome, 24 h, 2 µM; note: call rule not given here
Attribute Measured: Bacterial Biotransformation

Before answering, review these 5 worked examples.
CN1CCN(CC/C=C2/c3ccccc3Sc3ccc(S(=O)(=O)N(C)C)cc32)CC1 [THIOTHIXENE]
Compound metabolized
CCCCCOC(=O)Nc1nc(=O)n([C@@H]2O[C@H](C)[C@@H](O)[C@H]2O)cc1F [CAPECITABINE]
Compound metabolized
Cc1ccccc1N1C(=O)c2cc(S(N)(=O)=O)c(Cl)cc2NC1C (stereo not drawn) [METOLAZONE]
Compound metabolized
O=C(Nc1ccccc1)OCC(CN1CCCCC1)OC(=O)Nc1ccccc1 (stereo not drawn) [DIPERODON]
Compound NOT metabolized
Cc1nc2n(c(=O)c1CCN1CCC(c3noc4cc(F)ccc34)CC1)CCCC2O (stereo not drawn) [PALIPERIDONE]
Compound metabolized

Data request: Can you share its Bacterial Biotransformation? I mean this compound: CC(C(=O)O)c1ccc2c(c1)Cc1cccnc1O2 (stereo not drawn) [PRANOPROFEN]
Data returned: Compound metabolized

Data request: Name the reported Bacterial Biotransformation value associated with the compound CCN(CC)CC#CCOC(=O)C(O)(c1ccccc1)C1CCCCC1.Cl (stereo not drawn) [OXYBUTYNIN CHLORIDE]
Data returned: Compound metabolized

Data request: Entry CN1CCN(C2=Nc3cc(Cl)ccc3Nc3ccccc32)CC1 [CLOZAPINE] has what Bacterial Biotransformation?
Data returned: Compound NOT metabolized

Data request: Return reported Bacterial Biotransformation; argument: CCOc1ccc(NC(C)=O)cc1 [PHENACETIN]
Data returned: Compound NOT metabolized

Data request: Item OC(CCN1CCCCC1)(c1ccccc1)C1CCCCC1 (stereo not drawn) [TRIHEXYPHENIDYL] has what recorded Bacterial Biotransformation?
Data returned: Compound NOT metabolized

Data request: // returns reported Bacterial Biotransformation for input C[C@@H](CO)NC(=O)[C@@H]1C=C2c3cccc4[nH]cc(c34)C[C@H]2N(C)C1.O=C(O)/C=C\C(=O)O [ERGONOVINE MALEATE]
Data returned: Compound metabolized

Data request: Reported Bacterial Biotransformation, compound CS(=O)(=O)O.OC(CCN1CCCCC1)(c1ccccc1)c1ccccc1 [PRIDINOL METHANESULFONATE] : ____
Data returned: Compound NOT metabolized
